FYI, the data here is from paper PMC12136788.

test_target: T1, UNK ZnF1-3 (human, UniProt Q9C0B0 31-174)
T1 sequence: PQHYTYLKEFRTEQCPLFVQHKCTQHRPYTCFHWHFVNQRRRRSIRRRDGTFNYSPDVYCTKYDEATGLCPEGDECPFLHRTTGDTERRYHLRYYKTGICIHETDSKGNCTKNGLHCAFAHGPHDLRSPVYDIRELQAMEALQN
protocol_notes: nsRBNS (natural sequence RNA bind-n-seq); RBNS binding buffer (assumed for nsRBNS): 25 mM Tris pH 7.5, 150 mM KCl, 3 mM MgCl2, 0.01% Triton X-100, 500 ug/ml BSA, 20 U/ml SUPERase-In, 4 C; UNK is unkempt and MSI1 is Musashi-1; names of the RNAs are library labels; protein concentration not given here; high values mean tight binding
Over roughly 24,000 sequences, “enrichment r” has its median near 0.99; the highest 2% begin near 3.7. The sample as a whole holds a higher share of the highest values than the screen did.
Measured binding signal accompanies every entry in the list below.
quantity_name: binding signal (enrichment R)

# binder, result_unit, value_observed
rows = [
    ("chr3:127788656:127788657:+_ENSG00000058262_ENST00000243253|hu_hu|motif|central (ssRNA) RNA: GGGAGUUCUACAGUCCGACGAUCCACUUUCACAGUUCUUUUUGCCAGUGCCAGGAUAAAAAGCAAAAUUUUAAAUUGGAAAAUGUCGGGCACUUUACACAGUGGAAUGAAAGAAUACGAAAUUCAAAAACAUUAUUAAAAGUCCAACAGAGGAUUGAGCAUCA", "enrichment R", 4.09),
    ("chr2:47387610:47387611:-_ENSG00000143933_ENST00000272298|hu_mus|FALSE|FALSE (ssRNA) RNA: GGGAGUUCUACAGUCCGACGAUCUCCACGCAGAGUUACAGCUCCACACUUCAACAACAACAUGCUGACAGUUCCUAAAAGCUACUUUAAAAAAGGCAUAACCCAGAUGUUCCCUCAUUGGACCAACUCCAUCUAAGUUUAGAUCAACAGAGGAUUGAGCAUCA", "enrichment R", 1.21),
    ("117863777_117864697_1263_CDS_ENSMUSG00000017715_ENSMUST00000132676|mouse|control|control (ssRNA) RNA: GGGAGUUCUACAGUCCGACGAUCGCGGUCCUGGCGGUUGGUGAAGUAUGAGUCACUCAGGUUUGCACCACUCAGGAUGACGUUGUUGUCAAAGAGGUACACCUUGAUGUGCUGGAGGCCGAUGGUCUCAUUGAAGCGCUCAGGCAACAGAGGAUUGAGCAUCA", "enrichment R", 0.897),
    ("chr14:31813938:31813939:-_ENSMUSG00000021917_ENSMUST00000162092|perfect_dup|motif|central (ssRNA) RNA: GGGAGUUCUACAGUCCGACGAUCAACUAUGUAGACAGUCCACCCAAACUGUUCAGCCACGUACCCGUAGAUAAACCCAACGGUUGCAGAAAAAAGAAUGAUCCCCUGAAACAUCUGUUCAGCUAGUUUCUGCCCCUUGUAAUCCAACAGAGGAUUGAGCAUCA", "enrichment R", 1.33),
    ("chr14:14948730:14948731:-_ENSMUSG00000021737_ENSMUST00000022256|mus_mus|FALSE|FALSE (ssRNA) RNA: GGGAGUUCUACAGUCCGACGAUCAAAAACUGAAUAACGGCAUUCAUAGAGAGAAAACAGAUACUGCCGAACUGCUGGAAGACUGUGCAACACUUCAAGGAUCUCUGCCCCUUUAAUGACCUUUUCCCUGAGGUCCGGCCUUUCCAACAGAGGAUUGAGCAUCA", "enrichment R", 1.41),
    ("chr1:39494447:39494448:+_ENSG00000168653_ENST00000372967|hu_mus|hu_hu_hu_mus_False|98_98 (ssRNA) RNA: GGGAGUUCUACAGUCCGACGAUCGCACCGAGCGGCGAUCUUGUAGGGCUGUUCUGCGCUUAGGAACAUAAAGUGCCGGUCCAGGCUGAUGCCCAGCUUUUUCUGUAUGUCAAGGAAAGGCAUGGCUCUGCAGUGCCCUUGUCACAACAGAGGAUUGAGCAUCA", "enrichment R", 0.548),
    ("122244776_122244896_1956_3pUTR_ENSMUSG00000039735_ENSMUST00000162409|mouse|control|control (ssRNA) RNA: GGGAGUUCUACAGUCCGACGAUCGAAAAAGCACACAUCCUUUACACACACUUAGGCAGGACAGAAAGCAAAAGGCAUCGAUUAAGCUUCCACACCAGCAUCACUUGAACAGUAAGGCGUCAAAGAGUUUCUGGUGGCAGUAUUCAACAGAGGAUUGAGCAUCA", "enrichment R", 1.73),
    ("chr17:38438176:38438177:+_ENSG00000171475_ENST00000323571|hu_mus|FALSE|FALSE (ssRNA) RNA: GGGAGUUCUACAGUCCGACGAUCCCCCCUGACCAUGUAGCUAGGGACUGAGAGUCACAGGGAAGGGAAAGCUUACACCUGGAAUGUGAAGAAUCUGAUUUACAGCUGAUGGCAGGUUGGGUUUCCAGAAGGGCAGACAGCGCACAACAGAGGAUUGAGCAUCA", "enrichment R", 1.6),
    ("chr7:141445308:141445309:+_ENSG00000106028_ENST00000265304|hu_hu|hu_hu_hu_mus_False|28_98 (ssRNA) RNA: GGGAGUUCUACAGUCCGACGAUCUAUGAUUGUUGUUGCUUGUCGCCUCACAUUGUUUUUAUCCAUGUACUCGCCAUAGUCCACUUUCCCUUCCACAAAUAUACGAGACCCCUUUUUCACAUACUGAUAUGCCACAUCUCUGAGCAACAGAGGAUUGAGCAUCA", "enrichment R", 0.605),
    ("chr1:35656432:35656433:-_ENSG00000116560_ENST00000357214|perfect_dup|motif|central (ssRNA) RNA: GGGAGUUCUACAGUCCGACGAUCAGAUCUUCCGCGAUCAUCCACAAUUACAACAGCCCUUUCAAUAGGACCAAACUGGCGGAAGGCCUCUUCCAAAAGUUCGUUGGAAACAUAAGGAGAGAGAUUUCGAACAGACAGGGCUGCCAACAGAGGAUUGAGCAUCA", "enrichment R", 1.13),
    ("chr14:76904501:76904502:+_ENSMUSG00000022010_ENSMUST00000022587|mus_mus|FALSE|FALSE (ssRNA) RNA: GGGAGUUCUACAGUCCGACGAUCUCCAUCGCCACUGGUCUACACCAUUGGGAUUUCAUGCAAUUGCAGCCAAAUUAAAAAAACAGCCCCGUGGAAAAAAAAGAGAGAGGGCGGGAGGGAGCAAGCUCCAGCAGCCUGGUUCAACAACAGAGGAUUGAGCAUCA", "enrichment R", 2.68),
    ("chr18:47247233:47247234:+_ENSMUSG00000042705_ENSMUST00000049388|mus_hu|motif|central (ssRNA) RNA: GGGAGUUCUACAGUCCGACGAUCUUGUAUAUGGCUAUUUUCUUAAUUUUAUUCAUGUAAUUACCAAAGCUCUGUAUUCGGCGGAGGUACACAUCUUAUCUUGUAUCCAUGGACGCUCCUUGAUACAUUAUGGUAUCAUCCAGCCAACAGAGGAUUGAGCAUCA", "enrichment R", 1.03),
    ("chr1:241675328:241675329:-_ENSG00000091483_ENST00000366560|hu_hu|FALSE|FALSE (ssRNA) RNA: GGGAGUUCUACAGUCCGACGAUCGCUUUUAUUAACAUGAUCGUUGGGAUGCACAGGUAUCUUGCUGCCAAGUUCACCUCCUAACAUUUCAAUUGCUCUAUUGCUAAUGACUUCAUUUACAUUCAUAUUUGUCUGAGUUCCUGACAACAGAGGAUUGAGCAUCA", "enrichment R", 0.465),
]
